The measured values listed here are drawn from the DeepSol protein solubility set.

- Procedure Summary: soluble on expression in E. coli; label from the status in PepcDB or PDB records
Metric: soluble on expression in E. coli

As a guide, the following entries are already answered.
MSDSWTERWNDRYSNEIFAYGEKPNNYLKAQLENLQPGTILFAAEGEGRNAVFAACLGWDVQAFDISSEGKKKAFQLAEKNQVTIAYQVGQLETLGYTAGQFDALALIYAHFPATVKSAYHRILSSYVRSGGYIIFEAFSKKHLDYLAKNEQVGGPKEFDMLFSIEEIKADFPDYEILELEEKEIELNEGQFHNGTGSVIRFTGRKKLEHHHHHH : not soluble
YNPLNSVEDSTNRRDTVLQNMVAAGYIDKNQETKAAEVDMTSQLHDKYEGKISDYRYPSYFDAVVNEAVSKYNLTEEEIVNNGY : not soluble
MAAFMEEALVEARRARDAGEVPVGCVFVHGDKVVARGGNEVNVHRNATRHAEFICIDAILASCRERRLPARQLFSEITVVVTVEPCIMCSAALHTLGVKEIIYGCENDRFGGKTVVDVAAVVGHRIEITGGVRADEAMALLKDFYKGDNPAAPPQAKKKKLEHHHHHH : soluble
SENVGKKYFMSSVRRMPLNRAKALCSELQGTVATPRNAEENRAIQNVAKDVAFLGITDQRTENVFEDLTGNRVRYTNWNEGEPNNVGSGENCVVLLTNGKWNDVPCSDSFLVVCEFSD : soluble
MGSDKIHHHHHHMNWLLNISTHGSDLEIAGPEWSEAVSLLRRTGMDGFELYPAGAYDCTAIPKEIVGGVHLRFFVMLRQIWQNDREGLLRMFGSEQTVRHYYSGVNREAVISCYRSQLELAARFNVPYVVFHPVHYELEYVFNWQPPWGWRETVDLSTEIINEVVRDTPYDGWILFENLWWPGNFRLDSTDEIDRLLSKVRWPKCGIVLDTAHILNKNQELRTEEEAIAFLLRQVERLGDYRQLIKAVHLSKSLSGEAAKAGFANADPFCGAHDFWQRFSIALRHVRDLDRHEPFSHSMLGELFDLIEPDNVVFELAFSSLDEWIGKIEQQQRALQRFFPECRIKENLY : not soluble

Lab note: measured soluble on expression in E. coli of MGSDKIHHHHHHMIIENLSQLYPKGYLSKTIGSEATYSIPVDDQFFIVNKAFLSIKEQHLLEALFPISENPTITGNHPWFSYLFQQAKLPAEGTFRMLQIQTNVTKELQAEWQFNLTKMFPDTVDCFSPSNNMYILVEEQSKNTFQQEEIQGIFLTLDTDFDCTSAVFVGNFYSSEDILRRCFHEEQRIFSEELNSSSRTTVFSLTDVALHYFTKEAMSQNVLVEYYRRLLNKDTDIQPIISALWKNQGNISSTAKDLFMHRNTLHYRLEKFFEQTGLSLKKMDDLIFCYLLLRK was not soluble

Looking up GPGSMRTSADIACLLAQYIKGQPEERLVTAAAYPDIFTPDVVEELNGAYALLLDAQRQAREACCAVDDVTREHGLPTALRITPKEQNELDVTEEMMIKRFAEEVAVYLSEGGAPNISSDAEPTSVLNSHCVDLRWHQHSTLVLHVLSYLPLEFTLSVAENVCKGWREWLFIPEFSGMFWHECTMREYPECVRMLLLSGGGDARQCDWRTFAMLCCSVDEEDISGEGTRSPDLVHS , I found its soluble on expression in E. coli recorded as not soluble

====

- Procedure Summary: soluble on expression in E. coli; label from the status in PepcDB or PDB records
Metric: soluble on expression in E. coli

Sample answers from the record:
MGSDKIHHHHHHMTTVIAGVSGAIGGALARRYLSSYPDRSLIGLCRRPETAPDDLRNHSGVRLMAWDAEDEQRLDVAEFKAVLEASGPVYTVIYAGGLLHDGQMFPEKRLEDIDGRSMMRSYQVNCLGFVSLMQRLAPALRGKHFKRIAAVSAKVGSISDNQLGGWYAYRASKAALNMVVKNLSIELSRRYAPLACVSLHPGTTLSSLSQPFQQSLEQLTVHEPEQTASNLFSVLESLDARDNGRFISWDGSDLPW : not soluble
MENALSTLPLTAPSAELPRFGPPHIPIREDWLDRQREEILDPGLPIVDAHHHLWDRPGQRYMFEDFLRDTGSGHNIRATVYVQCRSMYRLDGPAAMRPVGEAEFVNGVAARSASGMYGPMRACAAIVGYADLTLGAAVEEVLHALVRAAPDRLRGVRNMTAAHASPAVAPGFGRVPEGLLSDARFRAGYARLAPLGLSYDVWAFHSQLAEVLDLARAYPDTALIVNHAGGPLGIGPYAGQRDAVMRDWDHHLRALADCPNVALKLGGLGMHISGLRFHEQDMPPSSEALAEAWRPWIHTAIERFGAQRCMFESNFPVDKGMAAYAAVWNAFKRLARGATPRERQALFAGTAARLYRLPASVLALEHHHHHH : not soluble
SGAAGPSSASVKEFQNLVDQHITPFVALSKKLAPEVGNQVEQLVKAIDAEKALINTASQSKKPSQETLLELIKPLNNFAAEVGKIRDSNRSSKFFNNLSAISESIGFLSWVVVEPTPGPHVAEMRGSAEFYTNRILKEFKGVNQDQVDWVSNYVNFLKDLEKYIKQYHTTGLTWNPKGGDAKSATP : soluble
MGSSRKTANAATNNFPCHGSCPEPSFQIQVIARGVRRRRSPIDQPSMEADVDTDIIDHLKTLHTSEIDARNGYEEALEDAEGKGLTSLFRDMIALHHGNAEELAGMLINAGETADDSGSFMSVVHRTIMSVRSLFDGLDGSVLPGLIDGEKRNLSKYDDALKAIAGIPSISSTLSAQRAKISEKIALMEQQKAAYEAAT : not soluble
MTHQKRLSVPKSWKVGRKGNKWISTTRPGPHSQARSLPLGLIIRDVLKLVDNNREGKRILSEGKVLVDGISRKDLRFPVGLFDVITLPLVNEAYRMLQDEKGRLVLYKLNETNVNKLCRINNKTTVKGGKIQLNLNDGTNILGSNDYGTKDSLILSIPDKHVVKHLKFEVGNLAMVIGGQHSGETGKIMEIREVKSSRHNTVMISGETDFETIEDYVIVIGEDKPEIRLGGEISELEHHHHHH : soluble

soluble on expression in E. coli recorded for this sequence, MVNFFRLNLSSNQAAAVTVSETAELPEALEQLGLSNSRPVLVIVGGASQTSEADFLRIQSLFVEVLAPIAQSLGAYVVDGGTDAGVMRLMGDARSQINGQFPLIGVAPTAKVILPNQTTILADDATPLEPHHSHFVLIPGSKWGDESPWIVKVATLLANGLPSITVLINGGEISFIDALNSVIAGRLVIVIAGSGRTADKIASALRGYATDERATELAASDHIQTIDLEAAPEELIDTMTNLLLNLEHHHHHH , is not soluble

Note to self: soluble on expression in E. coli recorded for MKRLLLTLTFPLFFVGCASQNPTHMAFSPQVPDISQQTSRPVQISLDTIDSRNAEYVARFMEEGTKTRLVGPSEPPKLLLDEVFRNGFTQAGYQIDPSATNSIQVQLEELQMDVTKKTFGYEAKHSVRIAVQARNSSQELVKRYKAKGVLKGPLTPDFATLEMDMNKLLGQLTGEILNDPELNQFLQK was soluble

soluble on expression in E. coli in this record for MKLKKLQIEPTTFCTLDCEYCHRKSIPPQDLPLEVLDRVNGVAKEYVIYGYGEPLLYPDFFKRIEGFDGKVVISTNGMLDSDILDLADKVGVSIDVNDKFRKGLEVEKALEVLRKLGERGIAEVVVTKDNLELLPAFFERIAEHGSGMLATNVVASNPAIYEQGVYFECSRITVEKVLGLDESILVEAIKDCSRGGGEALRRYKHLLKEVYSKGYSINLLAIFGRKGRVETAFKAEGVFEMLRDLAGDYGVELIEPSFFGDSKARECPYRDSAFLRVDGKISSCMSFAYTHTEYVDGHYKKVEKFCPGNVLKEDIDDVIGKMAEFERVRADMENFPWCADCPYVEGCWYAETNVDCYANLPSCSECLYSSGIAKCLLGD : not soluble

Documented soluble on expression in E. coli of MINMKALVGGIILPVSSPPIKNGVLLFDEESGKIVAVGKKEEVTIPEDAEIIEAPGKYISPGFVDAHSHIGMIPDGLEWEFQEANDFYSPIAPHLRAVDGFDPYDEAFKEAIAGGVTTVATGPGSANVMGGIGLLAKTYEEGFEKIIKPEAFIKMALGPKRPREYKSKYPYPTTRMGTVALMRTWFKRAREFMEGKIKTDNIDEEEIEMLRLLARALKREIQVKIHLSTSPDEIYAAIRIIKEFNLNATIDHAFGSQLVADMLSREGIPVIYGPPMITRIASFFRYVDDKAPVLLFKKGVNVSIMTDHPVLPEKHLRLLAAVVARNGLSLDDALKLITINPAKALGIDRFVGSLEPGKDADIVISSDHPIKPTSKIEIVFGRGREVYKAD : soluble

response.value for MGSDKIHHHHHHMRLNPERPLLSGSCTQYLDWGLPIAMDAVGPGEARRILDRYGADRVLLVGPPGVGKSTVVRSYAEDSASREGLEFVDLSEARSLEDLDTDSTYAFLHIYAPLVRAEDLAFIARRGEGYDWTLPSRLAYLTRPGVRGLVFIDEITNVALPEVQTILFSMVLDKRVAYNRLSSGVEVVAAGNSPRDSPVSQWPPPPLLDRFRLLIRVKPPDLEEWVSWMNSVGRPWDRRVAAVLKVKPVLMYRPPEDEEDKFPTPRSWSQLAWELAKTGAHGDEAVRIAAMVVGRRAAEEARQFLQPDPASLDLSTFPRLDERERLTLLSVEAGRLASQDVVELCRTLEKVGSYGAHYAVWLLMLSGVDTVEAARSCSYVEDLLSRLSSYLG (field: soluble on expression in E. coli) = not soluble
